Values compiled from paper PMC4207553.

Recorded Microsome Stability by entry
Assay explanation: Microsomal stability, mouse microsomes
Format: in vitro ADME
Measurement context: % remaining at 1 h

Compound	Endpoint result
CCN(CC)C[C@H](C)N1C[C@@H](C)[C@H](CN(C)S(=O)(=O)c2ccc(F)cc2)OCCCC[C@H](C)Oc2ncccc2C1=O [Compound 23]	<5% remaining
C[C@@H]1CN([C@@H](C)CN(C)C)C(=O)c2cc(NC(=O)NC3COC3)ccc2O[C@@H](C)CCCCO[C@H]1CN(C)S(=O)(=O)c1ccc(F)cc1 [Compound 4]	8 % remaining
Cc1noc(C)c1NC(=O)Nc1ccc2c(c1)C(=O)N([C@@H](C)CN1CCOCC1)C[C@@H](C)[C@H](CN(C)S(=O)(=O)c1ccc(F)cc1)OCCCC[C@H](C)O2 [Compound 13]	<5 % remaining
Cc1noc(C)c1NC(=O)Nc1ccc2c(c1)C(=O)N([C@@H](C)C[N+](C)(C)[O-])C[C@@H](C)[C@H](CN(C)S(=O)(=O)c1ccc(F)cc1)OCCCC[C@H](C)O2 [Compound 10]	35 % remaining
C[C@@H]1CN([C@@H](C)CN(C)C)C(=O)c2cccnc2O[C@@H](C)CCCCO[C@H]1CN(C)S(=O)(=O)c1ccc(F)cc1 [Compound 22]	<5% remaining
C[C@@H]1CN([C@@H](C)CN(C)C)C(=O)c2cc(NC(=O)Nc3ccc(F)cc3)ccc2O[C@@H](C)CCCCO[C@H]1CN(C)S(=O)(=O)c1ccc(F)cc1 [Compound 3]	<5 % remaining
Cc1noc(C)c1NC(=O)Nc1ccc2c(c1)C(=O)N([C@@H](C)CNCC(F)(F)F)C[C@@H](C)[C@H](CN(C)S(=O)(=O)c1ccc(F)cc1)OCCCC[C@H](C)O2 [Compound 12]	<5 % remaining
CCN(CC)C[C@H](C)N1C[C@@H](C)[C@H](CN(C)S(=O)(=O)c2ccc(F)cc2)OCCCC[C@H](C)Oc2ccc(NC(=O)Nc3c(C)noc3C)cc2C1=O [Compound 9]	5 % remaining
Cc1noc(C)c1NC(=O)Nc1ccc2c(c1)C(=O)N([C@@H](C)CN(C)C)C[C@@H](C)[C@H](CN(C)S(=O)(=O)c1ccc(F)cc1)OCCCCO2 [Compound 36]	15 % remaining

Switching to the query record.
Prompt: Answer with reported Microsome Stability of Cc1noc(C)c1NC(=O)Nc1ccc2c(c1)C(=O)N([C@@H](C)CN(C)C)C[C@@H](C)[C@H](CN(C)S(=O)(=O)c1ccc(F)cc1)OCCCC[C@H](C)O2 [Compound 5]
Completion: 8 % remaining
